experimental system: T1, BoNT/B HC (C-terminal domain of the BoNT/B heavy chain, recombinant) (Clostridium botulinum, UniProt P10844 853-1291)
T1 sequence: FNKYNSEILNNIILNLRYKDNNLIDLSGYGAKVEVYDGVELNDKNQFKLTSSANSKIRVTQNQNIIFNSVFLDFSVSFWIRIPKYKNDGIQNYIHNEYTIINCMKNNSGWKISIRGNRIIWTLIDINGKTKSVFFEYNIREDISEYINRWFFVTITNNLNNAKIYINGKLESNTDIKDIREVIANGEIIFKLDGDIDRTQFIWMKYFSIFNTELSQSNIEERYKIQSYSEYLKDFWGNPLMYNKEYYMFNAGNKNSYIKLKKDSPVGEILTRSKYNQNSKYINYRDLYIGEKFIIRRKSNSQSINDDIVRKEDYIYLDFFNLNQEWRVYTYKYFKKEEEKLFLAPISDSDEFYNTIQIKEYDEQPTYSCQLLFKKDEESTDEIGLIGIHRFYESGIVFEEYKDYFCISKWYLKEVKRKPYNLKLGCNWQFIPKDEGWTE
assay: yeast scFv FACS
outcome measure: Kd (nM)
Supply the numeric figure in nM, leaving out any unit text.

get_value(item= 26D9 scFv (scFv, mouse) scFv: DVQLQESGAELVKPGASVKLSCKASGFTFTDYWMHWVKQRPGQGLEWIGMIHPYNGDNNYHEKFKSKATLTVDKSSSTAYMQLSSLTTEDSAVYYCVRNDYDPYYYALDYWGQGTSLTVSAVDLKSGGSTSGSGKPGSGEGSSGSARQIVLTQSPAIMSASPGEKVTMSCRASSSVSYVYWYQQKPGSSPKPWIYRTSNLASGVPVRFSGSGSGTSYSLTISRVEAEDAATYYCQQWSSYPPTFGGGTKLEIK , readout=Kd) returns 0.089

get_value(item= 26G5 scFv (scFv, mouse) scFv: EVQLQESGPGLAKPSQTLSLTCSVTGYSITSDYWNWIRKFPGNKLEYMGYISYSGSTYYNPSLKSRISITRDTSKNQYYLQLNSVTTEDTATYYCARSFYDGYLYFDYWGQGTTVTVSSVDLKSGGSTSGSGKPGSGEGSSGSAREIVLTQSPAILSASPGEKVTMTCSASSSVSYMYWYQQKPGSSPRLLIYDTSNLASGVPARFSGSGSGTSYSLTISRVEAEDAATYYCQQWSSYPPTFGDGTRLEIK , readout=Kd) returns 1.79

get_value(item= 26E6 scFv (scFv, mouse) scFv: EVQLQQSGPELVKPGASVKISCKASGYTFADYYINWVKQSHGKSLEWIGDFNPNNGDHSYNQKFKDKATLTVDESSNTAYMELRSLTSEDSAVYYCTREFYYYFDVWGTGTTVTVSSVDLKSGGSTSGSGKPGSGEGSSGSARDIVMSQSPLSLPVSLGDQAFISCRFSQSIVHSNGNTYLEWYLQKPGQSPKLLIYKVSNRFSGVPDRFSGSGSGTDFTLKISRVEAEDLGVYYCFQGSHVPYTFGGGTKLEIK , readout=Kd) returns 0.889

get_value(item= 26C2 scFv (scFv, mouse) scFv: QVQLKQSGPELVKPGASVKLSCKASGYTFTSYDINWVKQRPGQGLEWIGWIYPRDDITKYNEKFKDKATLTVDTSSSTAYMELHSLTSEDSAVYFCARGDYYGSLDYWGQGTTLTVSSVDLKSGGSTSGSGKPGSGEGSSGSARQIVLTQSPAIMSASPGEKVTMTCSASSSVSYMHWYQQKSSTSPKLWIYDTSKLASGVPGRFSGSGSGNSYSLTISSMEAEDVATYYCFQGSGYPLTFGAGTKLEIK , readout=Kd) returns 7.76
